Origin of measurements: ChEMBL document CHEMBL1147989

Molecular target: Nociceptin receptor (Homo sapiens, UniProt P41146)
Sequence (P41146 whole entry): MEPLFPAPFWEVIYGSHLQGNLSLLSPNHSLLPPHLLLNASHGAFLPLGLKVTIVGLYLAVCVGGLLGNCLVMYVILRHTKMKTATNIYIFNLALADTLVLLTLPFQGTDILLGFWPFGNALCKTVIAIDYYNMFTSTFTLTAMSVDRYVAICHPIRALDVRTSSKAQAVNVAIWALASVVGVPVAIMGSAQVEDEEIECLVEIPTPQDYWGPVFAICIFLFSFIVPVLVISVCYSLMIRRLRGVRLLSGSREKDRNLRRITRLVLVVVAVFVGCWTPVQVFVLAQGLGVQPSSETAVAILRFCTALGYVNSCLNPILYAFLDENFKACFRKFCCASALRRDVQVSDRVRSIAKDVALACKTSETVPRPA
Experiment: Displacement of [125I][Tyr14]nociceptin FQ from human NOP receptor expressed in CHO cell membrane
Type: cell membranes
pKi: −log10 of the molar value.
Think of 7 as a floor: if pKi stands on it or above, it is T; beneath it, F.

Decide: pKi of "OC1(c2ccc(F)cc2)CCN(C(c2ccccc2)c2ccccc2)CC1" >= 7?
T

What about "OC1(c2ccc(Cl)cc2)CCN(C(c2ccccc2)c2ccccc2)CC1" ?
T

Likewise for "COc1cccc(C2(O)CCN(C(c3ccccc3)c3ccccc3)CC2)c1" ?
F

// next record "OC1(CCCc2ccccc2)CCN(C(c2ccccc2)c2ccccc2)CC1"
F

Next up: "OC1(c2cccc(F)c2)CCN(C(c2ccccc2)c2ccccc2)CC1"
T

Consider next the molecule "CCCc1ccc(C2(O)CCN(C(c3ccccc3)c3ccccc3)CC2)cc1" in the same way.
F

====

Molecular target: Kappa-type opioid receptor (Homo sapiens)
Experiment: Displacement of [3H]diprenorphine from human KOP receptor expressed in CHO cell membrane
Format: cell membranes
// NB: equality with 10 µM counts as 0.0; only Ki strictly below is 1.0

Does the reported Ki of the following compound sit strictly below 10 µM? "CCS(=O)(=O)N1CCN(Cc2ccccc2C2(O)CCN(C(c3ccccc3Cl)c3ccccc3Cl)CC2)CC1"
1.0

"OC1(c2cccs2)CCN(C(c2ccccc2)c2ccccc2)CC1" , same question.
1.0

Queued: "OC1(c2ccco2)CCN(C(c2ccccc2)c2ccccc2)CC1"
1.0

// same read-out, input: "OC1(c2ccccn2)CCN(C(c2ccccc2)c2ccccc2)CC1"
0.0

# repeat for "NCc1ccccc1C1(O)CCN(C(c2ccc(Cl)cc2)c2ccc(Cl)cc2)CC1"
1.0

====

Biological target: Delta-type opioid receptor (Homo sapiens, UniProt P41143)
Sequence (P41143 whole entry): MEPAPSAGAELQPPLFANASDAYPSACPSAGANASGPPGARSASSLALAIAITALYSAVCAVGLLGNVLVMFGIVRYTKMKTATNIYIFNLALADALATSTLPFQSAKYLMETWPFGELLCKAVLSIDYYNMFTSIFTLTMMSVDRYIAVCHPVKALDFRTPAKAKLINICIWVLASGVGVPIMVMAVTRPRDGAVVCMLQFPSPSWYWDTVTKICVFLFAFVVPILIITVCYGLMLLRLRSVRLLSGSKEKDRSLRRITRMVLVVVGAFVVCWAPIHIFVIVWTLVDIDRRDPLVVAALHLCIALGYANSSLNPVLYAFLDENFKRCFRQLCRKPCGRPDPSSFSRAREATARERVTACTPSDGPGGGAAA
Experiment: Displacement of [3H]diprenorphine from human DOP receptor expressed in CHO cell membrane
Assay type: cell membranes
I'd appreciate it if you could supply pKi values for the items below.
Expect pKi as a plain number equal to -log10 of the molar concentration.

Report pKi for "CCCCCCC1(O)CCN(C(c2ccccc2)c2ccccc2)CC1" please.
4.75

Item: "CCCc1ccc(C2(O)CCN(C(c3ccccc3)c3ccccc3)CC2)cc1"
4.48

Next compound: "CC(C)S(=O)(=O)N1CCN(Cc2ccccc2C2(O)CCN(C(c3ccccc3Cl)c3ccccc3Cl)CC2)CC1"
5.50

Here is the next compound: "N#Cc1ccc(C2(O)CCN(C(c3ccccc3)c3ccccc3)CC2)cc1"
4.55

What do you have for "CCCCC1(O)CCN(C(c2ccccc2)c2ccccc2)CC1" ?
4.73

Ok, now "CNC(=O)NCc1ccccc1C1(O)CCN(C(c2ccccc2Cl)c2ccccc2Cl)CC1"
5.70

Quick one: "CNCc1ccccc1C1(O)CCN(C(c2ccccc2Cl)c2ccccc2Cl)CC1"
5.42

Please do the same for "COc1ccccc1C1(O)CCN(C(c2ccccc2)c2ccccc2)CC1" as well.
5.36

Let us now turn to CCCCC(c1ccccc1)N1CCC(O)(c2ccccc2CN)CC1 (stereo not given)
5.92

Now try "OC1(c2ccccc2CN2CCOCC2)CCN(C(c2ccccc2Cl)c2ccccc2Cl)CC1" .
5.54

====

Target: Kappa-type opioid receptor (Homo sapiens, UniProt P41145)
Sequence (P41145 whole entry): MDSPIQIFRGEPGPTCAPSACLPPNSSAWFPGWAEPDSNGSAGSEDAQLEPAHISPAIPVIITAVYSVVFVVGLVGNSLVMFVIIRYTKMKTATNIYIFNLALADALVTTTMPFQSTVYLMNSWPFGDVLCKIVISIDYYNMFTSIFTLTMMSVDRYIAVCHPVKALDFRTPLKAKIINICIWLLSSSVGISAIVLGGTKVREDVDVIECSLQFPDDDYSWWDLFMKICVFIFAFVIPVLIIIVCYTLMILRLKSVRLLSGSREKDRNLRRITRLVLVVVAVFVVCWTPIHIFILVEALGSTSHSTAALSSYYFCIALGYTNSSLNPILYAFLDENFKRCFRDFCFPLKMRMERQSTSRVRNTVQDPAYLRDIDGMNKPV
Test: Displacement of [3H]diprenorphine from human KOP receptor expressed in CHO cell membrane
Format: cell membranes
assay_readout: Ki

Dear colleague, I am looking for the recorded Ki of the following compound: "Cc1ccccc1C1(O)CCN(C(c2ccccc2)c2ccccc2)CC1"
818 nM

Please do the same for NCc1ccccc1C1(O)CCN(C(c2ccccc2)c2ccccc2Cl)CC1 (stereo not given) as well.
425 nM

Please do the same for "CCCCC1(O)CCN(C(c2ccccc2)c2ccccc2)CC1" as well.
4560 nM

Now the compound Cc1ccccc1C(c1ccccc1)N1CCC(O)(c2ccccc2CN)CC1 (stereo not given)
725 nM

Same thing, different compound: "CN1CCN(Cc2ccccc2C2(O)CCN(C(c3ccccc3Cl)c3ccccc3Cl)CC2)CC1"
139 nM

Would you mind doing "OC1(c2cccc(F)c2)CCN(C(c2ccccc2)c2ccccc2)CC1" as well?
1990 nM

And then "OC1(c2ccccc2CN2CCNCC2)CCN(C(c2ccccc2Cl)c2ccccc2Cl)CC1" , what is it?
261 nM

Again, but for "CCc1ccc(C2(O)CCN(C(c3ccccc3)c3ccccc3)CC2)cc1"
11400 nM

# repeat for CC1(C)CCC(N2CCC(O)(c3ccccc3CN)CC2)c2ccccc21 (stereo not given)
1350 nM

Same thing, different compound: "NCc1ccccc1C1(O)CCN(C(c2cccc(F)c2)c2cccc(F)c2)CC1"
771 nM
